System: F380Y/beta2Delta
test_details: modulators of BK channel variants, profiling panel, selectivity assay, cell-based, U2OS BacMam, thallium flux, beta subunits (AID 1259406);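 further: initial slope of Thallos dye fluorescence rise after thallium is added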
run_parameters: at 30 µM
Active and inactive are the calls of the source.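 How the source made its calls: active means thallium flux through the channel raised or lowered by more than 3 SD from vehicle-only wells, actives on both sides; inactive means the rest.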
The reply should name one outcome from Y = active, N = inactive

Solved cases (2 shown):
{"compound": "CCOC(=O)c1c[nH]n2c(=O)c3c(nc12)CCC3", "assigned_category": "N"}
{"compound": "Fc1ccc(C2CCNCC2COc2ccc3c(c2)OCO3)cc1 (stereo not drawn)", "assigned_category": "Y"}

Now look at this one.
stdin: Look up the recorded call for COCCCNC1=C(C#N)C(=O)NC(c2cccs2)S1 (stereo not drawn) in this test.
stdout: N
